Tested on: MRSA T144
Test: microbe, parasite or virus in culture
Assay type: cell-based, Staphylococcus aureus
Parameters: unit not given here
Settings: MRSA T144; unit not given
PARAMETER: Antibacterial activity of LI14 derivates

{"columns": ["SUBSTANCE", "RECORDED_MEASUREMENT"],
 "data": [
  ["AKKLCRILKKLCRI-NH2 [LI14-A1, Ala substitute of LI14, position 1]", 64],
  ["LKKLCRALKKLCRI-NH2 [LI14-A7, Ala substitute of LI14, position 7]", 64],
  ["LKKLCRIAKKLCRI-NH2 [LI14-A8, Ala substitute of LI14, position 8]", 64],
  ["LKKLCRILKALCRI-NH2 [LI14-A10, Ala substitute of LI14, position 10]", 16],
  ["LKALCRILKKLCRI-NH2 [LI14-A3, Ala substitute of LI14, position 3]", 8]
]}

---

System: E. coli ATCC 25922
Test: microbe, parasite or virus in culture
Format: cell-based, Escherichia coli
Design: unit not given here
Conditions: E. coli 25922; unit not given
Ends that are not written are not given here.
# Lookup of reported Antibacterial activity of LI14 derivates keyed by entry

{"columns": ["SUBSTANCE", "Antibacterial activity of LI14 derivates"],
 "data": [
  ["LKKACRILKKLCRI-NH2 [LI14-A4, Ala substitute of LI14, position 4]", "16-32"],
  ["LKKLCRIAKKLCRI-NH2 [LI14-A8, Ala substitute of LI14, position 8]", 16],
  ["LKKLCRILAKLCRI-NH2 [LI14-A9, Ala substitute of LI14, position 9]", "8-16"],
  ["AKKLCRILKKLCRI-NH2 [LI14-A1, Ala substitute of LI14, position 1]", 16],
  ["LKKLCRILKKLARI-NH2 [LI14-A12]", 2]
]}

---

Tested on: MDR E. coli B2
Experiment: Checkerboard assay with LI14
Format: cell-based, Escherichia coli
Settings: antibiotic potentiation in the presence of ¼ MIC of LI14

{"columns": ["SMILES_STRUCTURE", "ASSAY_TARGET", "READOUT_UNIT", "RESULT_QUALIFIER", "Potentiation"],
 "data": [
  ["CN[C@H](CC(C)C)C(=O)N[C@H]1C(=O)N[C@@H](CC(N)=O)C(=O)N[C@H]2C(=O)N[C@H]3C(=O)N[C@H](C(=O)N[C@H](C(=O)O)c4cc(O)cc(O)c4-c4cc3ccc4O)[C@H](O)c3ccc(c(Cl)c3)Oc3cc2cc(c3O[C@@H]2O[C@H](CO)[C@@H](O)[C@H](O)[C@H]2O[C@H]2C[C@](C)(N)[C@H](O)[C@H](C)O2)Oc2ccc(cc2Cl)[C@H]1O", "MDR E. coli B2", "fold", "=", 64],
  ["O=C(O)c1cn(C2CC2)c2cc(N3CCNCC3)c(F)cc2c1=O", "MDR E. coli B2", "fold", "=", 8],
  ["CO[C@H]1/C=C/O[C@@]2(C)Oc3c(C)c(O)c4c(O)c(c(/C=N/N5CCN(C)CC5)c(O)c4c3C2=O)NC(=O)/C(C)=C\\C=C\\[C@H](C)[C@H](O)[C@@H](C)[C@@H](O)[C@@H](C)[C@H](OC(C)=O)[C@@H]1C", "MDR E. coli B2", "fold", ">", 64],
  ["C[C@H]1c2cccc(O)c2C(=O)C2=C(O)[C@]3(O)C(=O)C(C(N)=O)=C(O)[C@@H](N(C)C)[C@@H]3[C@@H](O)[C@@H]21", "MDR E. coli B2", "fold", "=", 8]
]}

---

System: MRSA T144
Experiment: Checkerboard assay with LI14
Type: cell-based, Staphylococcus aureus
Settings: in the presence of ¼ MIC of LI14
PARAMETER: MICb of antibiotic

{"columns": ["SMILES_STRUCTURE", "RECORDED_MEASUREMENT"],
 "data": [
  ["CN[C@H](CC(C)C)C(=O)N[C@H]1C(=O)N[C@@H](CC(N)=O)C(=O)N[C@H]2C(=O)N[C@H]3C(=O)N[C@H](C(=O)N[C@H](C(=O)O)c4cc(O)cc(O)c4-c4cc3ccc4O)[C@H](O)c3ccc(c(Cl)c3)Oc3cc2cc(c3O[C@@H]2O[C@H](CO)[C@@H](O)[C@H](O)[C@H]2O[C@H]2C[C@](C)(N)[C@H](O)[C@H](C)O2)Oc2ccc(cc2Cl)[C@H]1O", "0.5 µg/mL"],
  ["CC1(C)S[C@@H]2[C@H](NC(=O)[C@H](N)c3ccccc3)C(=O)N2[C@H]1C(=O)O", "1 µg/mL"],
  ["C[C@H]1c2cccc(O)c2C(=O)C2=C(O)[C@]3(O)C(=O)C(C(N)=O)=C(O)[C@@H](N(C)C)[C@@H]3[C@@H](O)[C@@H]21", "1 µg/mL"],
  ["O=C(O)c1cn(C2CC2)c2cc(N3CCNCC3)c(F)cc2c1=O", "2 µg/mL"]
]}

---

System: MRSA T144
Experiment: Checkerboard assay with LI14
Type: cell-based, Staphylococcus aureus
Conditions: antibiotic in combination with LI14, checkerboard
// FIC index lookup, one value per entry
PARAMETER: FIC index

{"columns": ["SMILES_STRUCTURE", "RECORDED_MEASUREMENT"],
 "data": [
  ["C[C@H]1c2cccc(O)c2C(=O)C2=C(O)[C@]3(O)C(=O)C(C(N)=O)=C(O)[C@@H](N(C)C)[C@@H]3[C@@H](O)[C@@H]21", 0.188],
  ["O=C(O)c1cn(C2CC2)c2cc(N3CCNCC3)c(F)cc2c1=O", 2.0],
  ["CC1(C)S[C@@H]2[C@H](NC(=O)[C@H](N)c3ccccc3)C(=O)N2[C@H]1C(=O)O", 0.078],
  ["CN[C@H](CC(C)C)C(=O)N[C@H]1C(=O)N[C@@H](CC(N)=O)C(=O)N[C@H]2C(=O)N[C@H]3C(=O)N[C@H](C(=O)N[C@H](C(=O)O)c4cc(O)cc(O)c4-c4cc3ccc4O)[C@H](O)c3ccc(c(Cl)c3)Oc3cc2cc(c3O[C@@H]2O[C@H](CO)[C@@H](O)[C@H](O)[C@H]2O[C@H]2C[C@](C)(N)[C@H](O)[C@H](C)O2)Oc2ccc(cc2Cl)[C@H]1O", 2.0]
]}

---

Tested on: MRSA T144
Assay: microbe, parasite or virus in culture
Assay type: cell-based, Staphylococcus aureus
Set-up: unit not given here
Conditions: MRSA T144; unit not given
Ends that are not written are not given here.
Each entry below lists one item and its recorded Antibacterial activity of LI14 derivates value.
PARAMETER: Antibacterial activity of LI14 derivates

{"columns": ["SUBSTANCE", "ASSAY_TARGET", "RESULT_QUALIFIER", "RECORDED_MEASUREMENT"],
 "data": [
  ["LKKLCRILKKLCAI-NH2 [LI14-A13, Ala substitute of LI14, position 13]", "MRSA T144", "=", 16],
  ["LKKLARILKKLCRI-NH2 [LI14-A5]", "MRSA T144", "=", 16],
  ["LAKLCRILKKLCRI-NH2 [LI14-A2, Ala substitute of LI14, position 2]", "MRSA T144", "=", 16],
  ["LKKLCRILKKLCRA-NH2 [LI14-A14, Ala substitute of LI14, position 14]", "MRSA T144", "=", 32],
  ["LKKLCRILKKACRI-NH2 [LI14-A11, Ala substitute of LI14, position 11]", "MRSA T144", "=", 64],
  ["LKKLCRILAKLCRI-NH2 [LI14-A9, Ala substitute of LI14, position 9]", "MRSA T144", "=", 16],
  ["LKKACRILKKLCRI-NH2 [LI14-A4, Ala substitute of LI14, position 4]", "MRSA T144", "=", 64],
  ["LKKLCAILKKLCRI-NH2 [LI14-A6, Ala substitute of LI14, Arg at position 6]", "MRSA T144", ">", 128],
  ["LKKLCRILKKLARI-NH2 [LI14-A12]", "MRSA T144", "=", 16]
]}

---

// log10 MICb of antibiotic lookup, one value per entry
Test system: sensitive E. coli ATCC 25922
Assay: Checkerboard assay with LI14
Assay type: cell-based, Escherichia coli
Details: in the presence of ¼ MIC of LI14
PARAMETER: log10 MICb of antibiotic (log10 of the value in µg/mL)

{"columns": ["MOLECULE", "PARAMETER", "RECORDED_MEASUREMENT"],
 "data": [
  ["O=C(O)c1cn(C2CC2)c2cc(N3CCNCC3)c(F)cc2c1=O [Ciprofloxacin]", "log10 MICb of antibiotic", -2.10],
  ["CN(C)c1cc(NC(=O)CNC(C)(C)C)c(O)c2c1C[C@H]1C[C@H]3[C@H](N(C)C)C(O)=C(C(N)=O)C(=O)[C@@]3(O)C(O)=C1C2=O [Tigecycline]", "log10 MICb of antibiotic", -1.80],
  ["C[C@H]1c2cccc(O)c2C(=O)C2=C(O)[C@]3(O)C(=O)C(C(N)=O)=C(O)[C@@H](N(C)C)[C@@H]3[C@@H](O)[C@@H]21 [Doxycycline]", "log10 MICb of antibiotic", -1.20],
  ["CN[C@H](CC(C)C)C(=O)N[C@H]1C(=O)N[C@@H](CC(N)=O)C(=O)N[C@H]2C(=O)N[C@H]3C(=O)N[C@H](C(=O)N[C@H](C(=O)O)c4cc(O)cc(O)c4-c4cc3ccc4O)[C@H](O)c3ccc(c(Cl)c3)Oc3cc2cc(c3O[C@@H]2O[C@H](CO)[C@@H](O)[C@H](O)[C@H]2O[C@H]2C[C@](C)(N)[C@H](O)[C@H](C)O2)Oc2ccc(cc2Cl)[C@H]1O [Vancomycin]", "log10 MICb of antibiotic", 0.90],
  ["CO[C@H]1/C=C/O[C@@]2(C)Oc3c(C)c(O)c4c(O)c(c(/C=N/N5CCN(C)CC5)c(O)c4c3C2=O)NC(=O)/C(C)=C\\C=C\\[C@H](C)[C@H](O)[C@@H](C)[C@@H](O)[C@@H](C)[C@H](OC(C)=O)[C@@H]1C [Rifampicin]", "log10 MICb of antibiotic", 0.30]
]}
